# tested target: FBP21-tWW (Homo sapiens, UniProt O75554)
# Construct: made in house; host or cells: E. coli BL21 DE3 (pET28a)
# Sequence (O75554 122-196 limits assumed): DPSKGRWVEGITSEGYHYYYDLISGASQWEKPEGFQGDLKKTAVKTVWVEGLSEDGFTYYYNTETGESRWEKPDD
# measurement notes: Isothermal titration calorimetry (ITC) with FBP21-tWW
# Type: binding
# study conditions: PBS pH 7.4, 25 °C, His6-FBP21-tWW, peptide: protein in cell 200 µM, peptide in syringe 4 mM, conjugate 2: 90 µM in cell, FBP21-tWW 1.4 mM in syringe, read-out: KD of the interaction with FBP21-tWW
# Method: ITC measurements were performed to analyze the dissociation constant KD of the interaction between FBP21-tWW and hPG-peptide conjugate 2 in PBS, pH 7.4 (Figure 2A). To compare the KD values we also analyzed the binding between FBP21-tWW and the monovalent peptide ligand Ac-WPPPPRVPRGSG-COOH (Figure 2B). […] Molecular weight distribution of hPG-OH core was determined by means of GPC coupled to a refractive index detector (RI) obtaining the complete distribution (Mn, Mp, Mw, dispersity). […]
Ends that are not written are not given here.
measured endpoint: Kd (µM)
Respond with the bare value in µM.

Q: Requested field: Kd. Item: Ac-WPPPPRVPRGSG [Ac-WPPPPRVPRGSG-COOH]
Result: 150
